Source listed as patent US20010054579A1.

assay_text: Reversed-phase liquid chromatography retention factor (log k) on hexyl-phenyl bonded phase
Format: physicochemical
run_conditions: 70% CH3CN; C6Ph column
Reported log k in 70% CH3CN, C6Ph values for the following compounds.
Answer as a number with no unit attached.

Some entries whose results are on file:
structure_string	log k in 70% CH3CN, C6Ph
c1ccc2c(c1)ccc1cc3c(ccc4ccccc43)cc12	1.071
c1ccc2ccccc2c1	0.470
c1ccc2c(c1)ccc1c3ccccc3ccc21	0.869

For the compound `CCCCCCc1ccccc1` , give its reported log k in 70% CH3CN, C6Ph.
0.871

For the compound `c1ccc2c(c1)Cc1ccccc1-2` , give its reported log k in 70% CH3CN, C6Ph.
0.602

For the compound `c1ccc2cc3ccccc3cc2c1` , give its reported log k in 70% CH3CN, C6Ph.
0.679

====

assay_text: Reversed-phase liquid chromatography retention factor (log k) on hexyl-phenyl bonded phase
Type: physicochemical
run_conditions: 70% CH3CN; C6Ph column
// label = 1.0 if log k in 70% CH3CN, C6Ph is not less than 1, otherwise 0.0

Please review the entries below; each comes with its answer.
structure_string	class_label
C1=Cc2cccc3cccc1c23	0.0
CCCCCc1ccccc1	0.0
c1cc2ccc3ccc4ccc5cccc6c(c1)c2c3c4c56	1.0
c1ccccc1	0.0
CCc1ccccc1	0.0

hey, is log k in 70% CH3CN, C6Ph for this one >= 1? `c1ccc2c(c1)-c1cccc3c1c-2cc1ccccc13`
0.0

hey, is log k in 70% CH3CN, C6Ph for this one >= 1? `c1ccc2c(c1)-c1ccc3ccc4cccc5cc-2c1c3c45`
1.0

====

assay_text: Reversed-phase liquid chromatography retention factor (log k) on pentyl bonded phase
Type: physicochemical
run_conditions: aqueous 80% acetonitrile at 40° C.; C5 column
Reported log k in 80% CH3CN, C5 values for the following molecules.
Answer as a number with no unit attached.

structure_string	log k in 80% CH3CN, C5
CCc1ccccc1	0.258

For the molecule `CCCCCCCCCc1ccccc1` , give its reported log k in 80% CH3CN, C5.
1.022

For the molecule `CCCCCCc1ccccc1` , give its reported log k in 80% CH3CN, C5.
0.679

For the molecule `CCCc1ccccc1` , give its reported log k in 80% CH3CN, C5.
0.362

For the molecule `CCCCCCCCc1ccccc1` , give its reported log k in 80% CH3CN, C5.
0.906

For the molecule `CCCCCc1ccccc1` , give its reported log k in 80% CH3CN, C5.
0.567

For the molecule `CCCCc1ccccc1` , give its reported log k in 80% CH3CN, C5.
0.462

For the molecule `CCCCCCCc1ccccc1` , give its reported log k in 80% CH3CN, C5.
0.794

For the molecule `CCCCCCCCCCc1ccccc1` , give its reported log k in 80% CH3CN, C5.
1.139

====

assay_text: Reversed-phase liquid chromatography retention factor (log k) on octyl bonded phase
Format: physicochemical
run_conditions: 70% CH3CN; C8 column
result_type: log k in 70% CH3CN, C8
Answer as a number with no unit attached.

Some entries whose results are on file:
structure_string	log k in 70% CH3CN, C8
c1cc2ccc3ccc4ccc5cccc6c(c1)c2c3c4c56	1.067
c1ccccc1	0.281
c1ccc2cc3ccccc3cc2c1	0.688
c1ccc2c(c1)ccc1c3ccccc3ccc21	0.842

For the compound `c1ccc2c(c1)Cc1ccccc1-2` , give its reported log k in 70% CH3CN, C8.
0.629

For the compound `c1ccc2c(c1)-c1ccc3ccc4cccc5cc-2c1c3c45` , give its reported log k in 70% CH3CN, C8.
1.067

For the compound `c1cc2c3c(cccc3c1)CC2` , give its reported log k in 70% CH3CN, C8.
0.629

For the compound `CCCCCCCCCc1ccccc1` , give its reported log k in 70% CH3CN, C8.
1.457

For the compound `c1cc2ccc3cccc4ccc(c1)c2c34` , give its reported log k in 70% CH3CN, C8.
0.777

For the compound `c1ccc2c(c1)ccc1ccccc12` , give its reported log k in 70% CH3CN, C8.
0.660

For the compound `c1ccc2cc3c(ccc4ccccc43)cc2c1` , give its reported log k in 70% CH3CN, C8.
0.860

For the compound `CCc1ccccc1` , give its reported log k in 70% CH3CN, C8.
0.513

For the compound `CCCCCCc1ccccc1` , give its reported log k in 70% CH3CN, C8.
1.043

For the compound `CCCCc1ccccc1` , give its reported log k in 70% CH3CN, C8.
0.776
